Where do these numbers come from? They come from the supplement of paper PMC9399229.

- Test system: Hep3B
- Method Summary: relative cell viability (CellTiter-Glo), compound alone (fraction); higher = more viable cells (less growth inhibition)
- Experimental Conditions: cabozantinib 0 µM; 4 days
Over roughly 1,900 compounds, “relative cell viability (CellTiter-Glo), compound alone” has its median near 1; the lowest 2% begin near 0.16. This is one part of a sample in which the lowest values are shown more often than they occur.
Mark y for relative cell viability under 0.7, n if at or over.

Molecule	Target Entity	Assigned Class
COC(=O)C1=CCCN(C)C1	Hep3B	n
CN1CCc2cc3c(cc2C1C1OC(=O)c2c1ccc1c2OCO1)OCO3 (single isomer, unassigned; (+)) [(+)-Bicuculline]	Hep3B	n
CCOc1ccccc1-n1c(C(C)N2CCN(C(=O)COc3ccc(Cl)cc3)CC2)nc2ccccc2c1=O (stereo not drawn)	Hep3B	n
CCN1CC2(OC(=O)c3ccccc3NC(C)=O)CCC(OC)C34C1C(CC23)C1(O)CC(OC)C2CC4C1(O)C2OC (stereo not drawn)	Hep3B	n
O=C1C=CC[C@@H]2[C@H]3CCCN4CCC[C@@H](CN12)[C@@H]34	Hep3B	n
CCN1CCN(C(=O)Cc2ccc(Nc3ncc(F)c(Nc4ccc(C(=O)Nc5ccccc5Cl)cc4)n3)cc2)CC1	Hep3B	y
COc1cc([C@@H]2c3cc4c(cc3[C@H](O)[C@H]3COC(=O)[C@@H]23)OCO4)cc(OC)c1OC	Hep3B	n
C[C@H]1CCC/C=C/[C@@H]2C[C@H](O)C[C@H]2[C@H](O)/C=C/C(=O)O1	Hep3B	y

###

This listing pairs compounds with measured relative cell viability.
- Test system: Hep3B
- Method Summary: relative cell viability (CellTiter-Glo), compound alone (fraction); higher = more viable cells (less growth inhibition)
- Experimental Conditions: cabozantinib 0 µM; 4 days
The full ranking holds about 1,900 compounds; the median of “relative cell viability (CellTiter-Glo), compound alone” is about 1, and the lowest 2% start at about 0.16. This excerpt belongs to a sample that is enriched for the lowest values.

Compound	relative cell viability
C[C@@H]1[C@H](O)[C@@H](C)/C=C/C=C/CC/C=C/C=C/C=C/C=C/[C@H](O[C@H]2O[C@@H](C)[C@H](O)[C@@H](N)[C@H]2O)C[C@@H]2O[C@](O)(C[C@@H](O)[C@H](O)CC[C@@H](O)C[C@@H](O)C[C@@H](O)CC(=O)O[C@H]1C)C[C@H](O)[C@H]2C(=O)O [Nystatin (Fungicidin)]	1.06
c1ccc([C@@H]2C[C@H]2NC2CCNCC2)cc1	0.99
[O-][n+]1ccccc1[S-].[O-][n+]1ccccc1[S-].[Zn+2] [Zinc Pyrithione]	0.0193
